Test system: Mus musculus
Assay: Toxicity in mouse EAC cells implanted Swiss mouse assessed as RBC count at 0.5 mg/mouse dosed for 9 days starting 1 day after tumor cell implantation (reference value: 3.69 10^6/mm3))
Type: organism-based
Details: in vivo
Mark false (0) for Activity values under 5 ×10⁶ /mm3, and true (1) for everything at or above.

1. O=c1[nH]cc(F)c(=O)[nH]1 [FLUOROURACIL]	true (1)
2. O=C1c2ccccc2C(=O)N1NCc1nc2ccccc2[nH]1	true (1)
3. O=[N+]([O-])c1ccc2[nH]c(CN3CCN(c4ccc(F)cc4)CC3)nc2c1	true (1)
4. CC1=NN(Cc2nc3ccccc3[nH]2)C(=O)C1	false (0)
